assay: AP1 Signaling Pathway (AID 357); conditions: ME-180 (cervical carcinoma) AP-1-bla reporter, EGF-induced, beta-lactamase ratio, 5 h; at 17.2 µM (top of the series) unless noted;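 also: ME-180 reporter cells stimulated with EGF at its EC50 level; % is scaled to controls: 0 for no effect and ±100 for the full control effect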
Inconclusive results are not listed. The source made the active and inactive calls. Calls follow the shape of the dose curve; as a rule, active = well fitted curve in either direction with a large enough effect (not every such curve was filed as active); inconclusive = small, poorly fitted or top-dose-only effect, or another doubt; inactive = flat fitted curve, though single readings scatter.
Consider the following compounds and their measured activity change, negative = inhibition readings.
PARAMETER MEASURED: activity change, negative = inhibition

COMPOUND: Cc1cccc2c1NC(C)CC2C (stereo unspecified)
TEST VALUE: 9.08% (inactive)
--
COMPOUND: Cn1c(=O)c2c(nc(NCc3ccc4c(c3)OCO4)n2Cc2ccc(F)cc2)n(C)c1=O
TEST VALUE: -26% (inactive)
--
COMPOUND: CC(=O)c1c(OCC(=O)O)ccc2c(C)cc(=O)oc12
TEST VALUE: 15% (inactive)
--
COMPOUND: OC(CCCN1CCC(O)(c2ccc(Cl)cc2)CC1)c1ccc(F)cc1 (stereo unspecified)
TEST VALUE: -2.74% (inactive)
--
COMPOUND: COc1ccccc1OCC(=O)Nc1ccc(S(=O)(=O)Nc2cc(C)nc(C)n2)cc1
TEST VALUE: -4.5% (inactive)
--
COMPOUND: CCOC(=O)c1[nH]c2cc3c(cc2c1NC(=O)CN1CCC(C)CC1)OCO3
TEST VALUE: -11.2% (inactive)
--
COMPOUND: COc1ccc(NC(=O)C2CSC3c4ccccc4C(=O)N23)cc1 (stereo unspecified)
TEST VALUE: -4.43% (inactive)
--
COMPOUND: Cn1c(=O)cc(NCc2ccccc2)[nH]c1=O
TEST VALUE: 15% (inactive)
--
COMPOUND: CCCn1nnc(NC(=O)c2cc(Br)cc(Br)c2OC)n1
TEST VALUE: -4.03% (inactive)
--
COMPOUND: COc1ccccc1C1/C(=C(\O)c2ccc3c(c2)OCCO3)C(=O)C(=O)N1CCCN(C)C (stereo unspecified)
TEST VALUE: 8.19% (inactive)
--
COMPOUND: N=c1ncn(CC(O)CN2CCOCC2)c2nc(N3CCOCC3)[nH]c12 (stereo unspecified)
TEST VALUE: 6.34% (inactive)
--
COMPOUND: O=C(NCCO)C1(c2ccccc2)CCCC1
TEST VALUE: 15.9% (inactive)
--
COMPOUND: COc1ccc(Nc2nc(Nc3ccc(OC)cc3)nc(-n3[nH]c(=O)c(C)c3C)n2)cc1
TEST VALUE: 22.4% (inactive)
--
COMPOUND: CC(C)CC(=O)Nc1ccccc1N1CCCC1
TEST VALUE: 8.1% (inactive)
--
COMPOUND: CC1(C)Cc2c(C#N)c(NCCc3ccccc3)nc(-c3ccco3)c2CO1
TEST VALUE: 14.4% (inactive)
--
COMPOUND: CCN1CCc2c(C#N)c(N3CCOCC3)nc(NCCO)c2C1
TEST VALUE: 0.329% (inactive)

Reference source for all entries: PubChem BioAssay (NCATS)
